# experimental.target: T1, Mtb-SecB^TA chaperone (Rv1957), His6-tag removed (Mycobacterium tuberculosis, UniProt P95257 1-181)
# T1 construct: SecB-like chaperone Mtb-SecB^TA (Rv1957) of Mycobacterium tuberculosis, 181 amino acids; untagged mass printed as 20,388 Da; Residues of the pET15b vector may remain after thrombin cleavage (surmised from the printed mass); For MST the protein was labelled with the dye NT-647; also called SecB-like chaperone; TA-associated SecB chaperone; not shown: His6, N-terminal, cleaved
# T1 sequence: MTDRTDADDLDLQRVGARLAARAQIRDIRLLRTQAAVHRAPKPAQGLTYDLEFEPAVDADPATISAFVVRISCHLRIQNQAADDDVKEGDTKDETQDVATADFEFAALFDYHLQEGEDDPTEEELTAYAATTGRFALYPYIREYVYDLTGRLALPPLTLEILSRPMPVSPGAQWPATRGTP
# assay.overview: MST; 100 nM NT-647-labelled Mtb-SecB^TA with 3 nM to 100 µM ChAD peptide; 20 mM MES, 200 mM NaCl, 0.025% Tween 20, pH 6.5; 22 °C
# conditions.used: both partners purified
recorded.endpoint: Kd (nM)
Enter your answer as a number in nM; do not include the unit.

Query :: Give recorded Kd. EVPTWHRLSSYRG (residues 104-116 of the antitoxin Mtb-HigA1 of Mycobacterium tuberculosis (chaperone addiction region); also called C4; 13-mer ChAD peptide) [ChAD peptide, Mtb-HigA1(104-116)]
Result :: 2600

Source of measurements: paper PMC6377645
